# System: DU-145
# run_description: NCI tumour cell line growth inhibition, 48 h
The source made the active and inactive calls. Rule as the data show it: active = GI50 up to about 1.1 µM and inactive = higher.
Reported GI50 values for the following compounds.

{"columns": ["compound", "assay_system", "test_result"],
 "data": [
  ["O=C1C(Br)=CC2(C=C1Br)CCNC1=C2C(=O)c2[nH]cnc2C1=O", "DU-145", "16 µM (inactive)"],
  ["CC1CCc2c(c(CC3CC(=O)NC(=O)C3)nn2-c2ccccc2)C1 (stereo not drawn)", "DU-145", "> 100 µM (inactive)"]
]}

Note: attention shifts to another entry.
Exam item: Notebook entry, DU-145 assay: GI50 of O=C(N/N=C\c1ccc([N+](=O)[O-])cc1)Nc1cccc2ccccc12 = ?
Marked response: 24.9 µM (inactive)

###

Reported GI50 values for the following compounds.
# Tested on: NCI-H23
# run_description: NCI tumour cell line growth inhibition, 48 h
Active and inactive are the calls of the source. Rule as the data show it: active = GI50 up to about 1.1 µM and inactive = higher.

{"columns": ["compound", "test_result"],
 "data": [
  ["CCOC(=O)NC(=O)c1cn(CCCO)c(=O)[nH]c1=O", "> 100 µM (inactive)"]
]}

Exam item: Query: GI50; subject: CC(=O)O[C@@H]1[C@H]2O[C@H]2[C@H]2O[C@@]2(COC(=O)c2ccccc2)[C@H]1OC(C)=O
Marked response: > 100 µM (inactive)

Exam item: Query: GI50; subject: c1ccc2cc3n[se]nc3cc2c1
Marked response: 39.7 µM (inactive)

Exam item: Query: GI50; subject: O=C1c2ccccc2C(=O)c2c1ccc1nc3c(nc21)-c1c2ccccc2cc2cccc-3c12
Marked response: 41.6 µM (inactive)

Exam item: Query: GI50; subject: CC(C)NC(=O)O/N=C1\CCC2[C@@H]3CC=C4C[C@@H](OC(=O)NC(C)C)CC[C@]4(C)C3CC[C@]12C (stereo partly specified)
Marked response: 1.18 µM (inactive)

Exam item: Query: GI50; subject: CC(C(=O)c1ccccc1)C1(O)C(=O)Nc2ccc(Cl)cc21 (stereo unspecified)
Marked response: > 100 µM (inactive)

Exam item: Query: GI50; subject: O=C(CCC(=O)C(C(=O)c1ccccc1)c1ccccc1)Nc1cccc(C(F)(F)F)c1 (stereo unspecified)
Marked response: > 100 µM (inactive)

Exam item: Query: GI50; subject: O=C(Sc1c(-c2ccccc2)c(=O)n(-c2ccccc2)c(=S)n1-c1ccccc1)c1ccc(Cl)cc1
Marked response: > 100 µM (inactive)

Exam item: Query: GI50; subject: OCC1OC(n2cnc3c2N=CNC[C@H]3O)C(Cl)C1O (stereo partly specified)
Marked response: > 100 µM (inactive)

###

# Test system: MOLT-4
# run_description: NCI tumour cell line growth inhibition, 48 h
Calls of active or inactive are those of the source. Rule as the data show it: active = GI50 up to about 1.1 µM and inactive = higher.
measured_quantity: GI50

The cases that follow already have their GI50 on record.
{"columns": ["molecule", "GI50"],
 "data": [
  ["CN(CCNC(=S)c1cn(C)c2c1ccc1ccccc12)CCNC(=S)c1cn(C)c2c1ccc1ccccc12", "24.7 µM (inactive)"],
  ["CCOc1nc2sc3c(c2c(=O)n1CCSSCCn1c(OCC)nc2sc4c(c2c1=O)CCCC4)CCCC3", "> 100 µM (inactive)"],
  ["CCOC(=O)NC(Nc1ccc(F)cc1)(C(=O)OCC)C(F)(F)F (stereo not given)", "6.71 µM (inactive)"]
]}

Exam item: Query: GI50; subject: CCCCCCCCCCCCCCC[C@@H](O)C[N+](C)(C)CCO
Marked response: 2.17 µM (inactive)

Exam item: Query: GI50; subject: Cc1cn(C2CC(N=[N+]=[N-])C(COP(=O)(O)OCC3OC(n4cc(F)c(=O)[nH]c4=O)CC3O)O2)c(=O)[nH]c1=O (stereo not given)
Marked response: 2.22 µM (inactive)

Exam item: Query: GI50; subject: O=C1CCN2C(=O)CCN12
Marked response: > 100 µM (inactive)

Exam item: Query: GI50; subject: CCC1(CN(C)C)CC/C(=C\c2ccc(OC)c(OC)c2)C1=O (stereo not given)
Marked response: 40.2 µM (inactive)
